test description: ATG_NRF2_ARE_CIS: Attagene CIS-FACTORIAL HepG2 Assay for human Nuclear Factor Erythroid 2 Related Factor 2 (NFR2) response to Antioxidant Response Elements (ARE) (AID 2282992)
condition context: HepG2 Attagene ARE/NRF2 reporter, transcription factor activity; actives raise or lower the signal
Calls of active or inactive are those of the source. The calls were made as follows: active = hit-call score of the fitted dose curve at least 0.9, where 1 is the maximum; inactive = score below 0.9.
endpoint name: outcome

Lookup: Which outcome value belongs to "CCCCCCCCCCCCCCCCCC(=O)OCCCCCCCCCCCCCC(C)C" ?
Found: inactive

Lookup: Which outcome value belongs to CCCCCC1C(=O)CCC1CC(=O)OC (stereo not drawn) ?
Found: inactive

Lookup: Which outcome value belongs to "CCOC(=O)C(=O)OCC" ?
Found: inactive

====

Read-out: Interleukin-8 (IL8), CXCL8 (gene 3576)
test description: BSK_3C_IL8: BioMAP Diversity Plus: 3C Assay for Interleukin-8 (IL8) Biomarker Activity (AID 2283020)
condition context: primary human endothelial cells (HUVEC); actives raise or lower the signal
The source made the active and inactive calls. The calls were made as follows: active = hit-call score of the fitted dose curve at least 0.9, where 1 is the maximum; inactive = score below 0.9.
Please answer using one outcome listed in TRUE for active, FALSE for inactive

Solved entries (count: 2):
Lookup: How was "CC(C)(C)c1cccc(O)c1" classified in this test?
Found: FALSE

Lookup: How was CC1=CC(C)C(C=O)C(C)C1 (stereo not drawn) (tested in a mixture with another compound) classified in this test?
Found: FALSE

Could you now consider this next molecule?
Lookup: How was "c1ccc(Sc2ccccc2)cc1" classified in this test?
Found: TRUE

====

study target: Estrogen receptor (Homo sapiens)
test description: CCTE_Deisenroth_AIME_384WELL_LUC_Active: CCTE's 384-well Estrogen Receptor Transactivation Assay with AIME metabolic competence (ERTA luciferase; metabolism positive), Deisenroth Lab (AID 2284030)
Method: CCTE_Deisenroth_AIME_384WELL (AIME metabolism assay) is a cell-based, single-readout assay that uses VM7Luc4E2, a human mammary gland/breast cell line, with measurements taken at 24 hour after chemical dosing in a 384-well plate.CCTE_Deisenroth_AIME_384WELL_LUC_Active is one of four assay components measured or calculated from the CCTE_Deisenroth_AIME_384WELL assay. […]
Records with an inconclusive call do not appear. Active and inactive are the calls of the source. The calls were made as follows: active = hit-call score of the fitted dose curve at least 0.9, where 1 is the maximum; inconclusive = response in the unintended direction; inactive = score below 0.9.
endpoint name: AC50

Here are 8 molecules together with their reported answers.
Lookup: Which AC50 value belongs to "[Na+]" ?
Found: inactive

Lookup: Which AC50 value belongs to "CCCC1CCC(=O)CC1" ?
Found: inactive

Lookup: Which AC50 value belongs to "COc1ccc2[nH]cc(CCNC(C)=O)c2c1" ?
Found: inactive

Lookup: Which AC50 value belongs to "CC(=O)C1=C(C)[C@@H]2C[C@@]3(C1)[C@H](C)CC[C@H]3C2(C)C" ?
Found: 0.000204 µM (active)

Lookup: Which AC50 value belongs to "CCCCCCCCOC(=O)c1ccc(O)cc1" ?
Found: inactive

Lookup: Which AC50 value belongs to "CC(=O)c1ccc2ccccc2c1" ?
Found: 74.9 µM (active)

Lookup: Which AC50 value belongs to "CC(=O)CC(=O)N(C)C" ?
Found: inactive

Lookup: Which AC50 value belongs to "OC[C@H]1O[C@@H](O[C@H]2[C@H](O)[C@@H](O)[C@H](O)O[C@@H]2CO)[C@H](O)[C@@H](O)[C@H]1O" ?
Found: inactive

---
Lookup: Which AC50 value belongs to "Cc1cccc(O)c1" ?
Found: inactive
